# credit: the supplement of paper PMC11061612

system: COLO-668 (Small Cell Lung Carcinoma); assay: Bliss excess, mean over the matrix (fraction); higher = more synergy
readout-label: Bliss excess
A bare number is all that is needed in reply.

{"molecule": "CC(=O)c1c(C)c2cnc(Nc3ccc(N4CCNCC4)cn3)nc2n(C2CCCC2)c1=O [Palbociclib] + CC1(C)CCC(CN2CCN(c3ccc(C(=O)NS(=O)(=O)c4ccc(NCC5CCOCC5)c([N+](=O)[O-])c4)c(Oc4cnc5[nH]ccc5c4)c3)CC2)=C(c2ccc(Cl)cc2)C1 [Venetoclax] (first compound max 10 µM, 7x7, partner max 1 µM)", "Bliss excess": -0.0554}
{"molecule": "COc1cc2ncnc(Nc3ccc(F)c(Cl)c3)c2cc1OCCCN1CCOCC1 [Gefitinib] + CC(C)n1c(=O)n(C)c2cnc3cc(F)c(-c4ccc(OCCCN5CCCCC5)nc4)cc3c21 [AZD1390] (first compound max 10 µM, 7x7, partner max 0.3 µM)", "Bliss excess": -0.0333}

Would you kindly look at the next entry?
Need Bliss excess, item CS(=O)(=O)CCNCc1ccc(-c2ccc3ncnc(Nc4ccc(OCc5cccc(F)c5)c(Cl)c4)c3c2)o1 [Lapatinib] + NC1(c2ccc(-c3nc4ccn5c(=O)[nH]nc5c4cc3-c3ccccc3)cc2)CCC1 [MK-2206] (first compound max 10 µM, 7x7, partner max 10 µM)
-0.0393

----------
tested on: NCI-H522 (Lung Adenocarcinoma); experiment: combination Emax (second highest fraction inhibited in the dose matrix, 72 h); higher = more inhibition; extreme values may be limits of the assay
readout-label: combination Emax
API doc: respond with a numeric literal and nothing else, no unit.

As a guide, the following entries are already answered.
{"molecule": "Cc1nc(Nc2ncc(C(=O)Nc3c(C)cccc3Cl)s2)cc(N2CCN(CCO)CC2)n1 [Dasatinib] + CC(=O)Nc1cccc(-n2c(=O)n(C3CC3)c(=O)c3c(Nc4ccc(I)cc4F)n(C)c(=O)c(C)c32)c1 [Trametinib] (first compound max 2 µM, 7x7, partner max 1 µM)", "combination Emax": 0.251}
{"molecule": "CC1(C)CCC(CN2CCN(c3ccc(C(=O)NS(=O)(=O)c4ccc(NCC5CCOCC5)c([N+](=O)[O-])c4)c(Oc4cnc5[nH]ccc5c4)c3)CC2)=C(c2ccc(Cl)cc2)C1 [Venetoclax] + Cn1cnc2c(F)c(Nc3ccc(Br)cc3Cl)c(C(=O)NOCCO)cc21 [Selumetinib] (first compound max 1 µM, 7x7, partner max 3 µM)", "combination Emax": 0.0772}

// returns reported combination Emax for input C[C@@H](c1ccc2nccn2c1)n1nnc2ncc(-c3cnn(C)c3)nc21 [Savolitinib] + CC1(C)CCC(CN2CCN(c3ccc(C(=O)NS(=O)(=O)c4ccc(NCC5CCOCC5)c([N+](=O)[O-])c4)c(Oc4cnc5[nH]ccc5c4)c3)CC2)=C(c2ccc(Cl)cc2)C1 [Venetoclax] (first compound max 1 µM, 7x7, partner max 1 µM)
0.111

Give the measured combination Emax of O=C(c1cc(Cc2n[nH]c(=O)c3ccccc23)ccc1F)N1CCN(C(=O)C2CC2)CC1 [Olaparib] + CN(CC[C@H](CSC1=CC=CC=C1)NC2=C(C=C(C=C2)S(=O)(=O)NC(=O)C3=CC=C(C=C3)N4CCC(CC4)[C@H](C5=CC=CC=C5C6=CC=C(C=C6)Cl)O)S(=O)(=O)C(F)(F)F)CCO [AZD4320] (first compound max 10 µM, 7x7, partner max 1 µM) .
0.0607

# query: combination Emax of entry COc1nnc2ccc(N3CCC(c4ccc(OCCN5CCN(C)C(=O)[C@H]5C)cc4)CC3)nn12 [AZD5153] + CC1(C)CCC(CN2CCN(c3ccc(C(=O)NS(=O)(=O)c4ccc(NCC5CCOCC5)c([N+](=O)[O-])c4)c(Oc4cnc5[nH]ccc5c4)c3)CC2)=C(c2ccc(Cl)cc2)C1 [Venetoclax] (first compound max 1 µM, 7x7, partner max 1 µM)
0.415

Query (molecule): CN(C)CCCOc1ccc(-c2ccc3ncc4c(c3c2)n(C2CCOCC2)c(=O)n4C)cn1 [AZD0156] + O=C(c1cc(Cc2n[nH]c(=O)c3ccccc23)ccc1F)N1CCN(C(=O)C2CC2)CC1 [Olaparib] (first compound max 3 µM, partner max 3 µM) ; field requested: combination Emax
0.258

----------
tested on: EW-1 (Ewing's Sarcoma); experiment: combination Emax (second highest fraction inhibited in the dose matrix, 72 h); higher = more inhibition; extreme values may be limits of the assay
readout-label: combination Emax
Please reply with the value in numeric form only.

Use the examples below as a reference point.
{"compound": "Cc1cc2ncnn2cc1Nc1ncc2c(n1)n(C1CCOCC1)c(=O)n2C [AZD7648] + CN(C)CCCOc1ccc(-c2ccc3ncc4c(c3c2)n(C2CCOCC2)c(=O)n4C)cn1 [AZD0156] (first compound max 10 µM, 7x7, partner max 1 µM)", "combination Emax": 0.34}
{"compound": "CN(CCO)CC[C@H](CSc1ccccc1)Nc1ccc(S(=O)(=O)NC(=O)c2ccc(N3CCC([C@@H](O)c4ccccc4-c4ccc(Cl)cc4)CC3)cc2)cc1S(=O)(=O)C(F)(F)F [AZD4320] + Cc1cc2ncnn2cc1Nc1ncc2c(n1)n(C1CCOCC1)c(=O)n2C [AZD7648] (first compound max 1 µM, 7x7, partner max 10 µM)", "combination Emax": 0.745}
{"compound": "COc1cccc(OCCCN)c1-c1cc(Nc2cnc(C#N)cn2)n[nH]1 [Prexasertib] + Cc1cc2ncnn2cc1Nc1ncc2c(n1)n(C1CCOCC1)c(=O)n2C [AZD7648] (first compound max 1 µM, 7x7, partner max 10 µM)", "combination Emax": 0.962}
{"compound": "CS(=O)(=O)CCNCc1ccc(-c2ccc3ncnc(Nc4ccc(OCc5cccc(F)c5)c(Cl)c4)c3c2)o1 [Lapatinib] + C[C@@H](Oc1cc(-c2cnn(C3CCNCC3)c2)cnc1N)c1c(Cl)ccc(F)c1Cl [Crizotinib] (first compound max 10 µM, 7x7, partner max 10 µM)", "combination Emax": 0.966}
{"compound": "CCN(CCO)CCCOc1ccc2c(Nc3cc(CC(=O)Nc4cccc(F)c4)[nH]n3)ncnc2c1 [AZD2811] + C[C@@H]1COCCN1C2=NC(=NC(=C2)C3(CC3)[S@](=N)(=O)C)C4=C5C=CNC5=NC=C4 [AZD6738] (first compound max 1 µM, 7x7, partner max 10 µM)", "combination Emax": 0.852}

Reported combination Emax, compound CCN(CCO)CCCOc1ccc2c(Nc3cc(CC(=O)Nc4cccc(F)c4)[nH]n3)ncnc2c1 [AZD2811] + O=C(c1cc(Cc2n[nH]c(=O)c3ccccc23)ccc1F)N1CCN(C(=O)C2CC2)CC1 [Olaparib] (first compound max 1 µM, 7x7, partner max 10 µM) : ____
0.709

Sample COc1nnc2ccc(N3CCC(c4ccc(OCCN5CCN(C)C(=O)[C@H]5C)cc4)CC3)nn12 [AZD5153] + C=CCn1c(=O)c2cnc(Nc3ccc(N4CCN(C)CC4)cc3)nc2n1-c1cccc(C(C)(C)O)n1 [AZD1775] (first compound max 1 µM, partner max 1 µM) — what was its combination Emax?
0.883

Would you mind telling me what combination Emax value was observed for COc1cccc(OCCCN)c1-c1cc(Nc2cnc(C#N)cn2)n[nH]1 [Prexasertib] + C[C@@H]1COCCN1C2=NC(=NC(=C2)C3(CC3)[S@](=N)(=O)C)C4=C5C=CNC5=NC=C4 [AZD6738] (first compound max 1 µM, 7x7, partner max 10 µM) ?
0.96

Recorded combination Emax for COc1cccc(OCCCN)c1-c1cc(Nc2cnc(C#N)cn2)n[nH]1 [Prexasertib] + CN(C)CCCOc1ccc(-c2ccc3ncc4c(c3c2)n(C2CCOCC2)c(=O)n4C)cn1 [AZD0156] (first compound max 1 µM, 7x7, partner max 1 µM) , please?
0.958

----------
system: SK-LU-1 (Lung Adenocarcinoma); assay: Bliss excess, mean over the matrix (fraction); higher = more synergy
readout-label: Bliss excess

{"compound": "NC1(C(=O)N[C@@H](CCO)c2ccc(Cl)cc2)CCN(c2ncnc3[nH]ccc23)CC1 [Capivasertib] + C[C@@H]1COCCN1C2=NC(=NC(=C2)C3(CC3)[S@](=N)(=O)C)C4=C5C=CNC5=NC=C4 [AZD6738] (first compound max 10 µM, 7x7, partner max 10 µM)", "assay-target": "SK-LU-1 (Lung Adenocarcinoma)", "Bliss excess": -0.0162}

Now consider a different compound.
// lookup Bliss excess for Cn1cnc2c(F)c(Nc3ccc(Br)cc3Cl)c(C(=O)NOCCO)cc21 [Selumetinib] + CC(C)n1c(=O)n(C)c2cnc3cc(F)c(-c4ccc(OCCCN5CCCCC5)nc4)cc3c21 [AZD1390] (first compound max 10 µM, 7x7, partner max 0.3 µM)
-0.02

----------
test system: ME-180 (Cervical Carcinoma); assay: combination Emax (second highest fraction inhibited in the dose matrix, 72 h); higher = more inhibition; extreme values may be limits of the assay
readout-label: combination Emax
In your answer, state the number alone without any accompanying words.

{"molecule": "COc1cccc(OCCCN)c1-c1cc(Nc2cnc(C#N)cn2)n[nH]1 [Prexasertib] + C[C@@H]1COCCN1C2=NC(=NC(=C2)C3(CC3)[S@](=N)(=O)C)C4=C5C=CNC5=NC=C4 [AZD6738] (first compound max 1 µM, 7x7, partner max 10 µM)", "combination Emax": 0.485}

# input for lookup
Item: C[C@@H]1COCCN1c1cc(C2([S@](C)(=N)=O)CC2)nc(-c2ccnc3[nH]ccc23)n1 [AZD6738] + O=C(c1cc(Cc2n[nH]c(=O)c3ccccc23)ccc1F)N1CCN(C(=O)C2CC2)CC1 [Olaparib] (first compound max 10 µM, 7x7, partner max 10 µM) Test system: ME-180 (Cervical Carcinoma) Read-out: combination Emax Value: ?
0.425
